Tested on: OVCAR-8 ovarian
TEST SUMMARY: NCI-60 one-dose screen, 48 h (100 = growth as untreated, 0 = no growth, -100 = all killed)
EXPERIMENTAL CONDITIONS: 10 µM unless noted
About 83,000 compounds went through this panel and 20% of them were active in at least one assay; those are over-represented in the sample as a whole.
// reported growth per item
Give a bare numeral; the unit % is implied.

Given the entry COP(=O)(OC)c1nnn(-c2cccc([N+](=O)[O-])c2)c1C , what growth was observed with OVCAR-8 ovarian? 101

I'm curious: which growth was measured for CCOC(=O)c1c(NC(=O)c2ccc(OC)cc2)sc2c(CN(C)C)c(O)ccc12 tested on OVCAR-8 ovarian? 84.2

Form field - read-out: growth; system: OVCAR-8 ovarian; submitted item: CCCCCSB(SCCCCC)c1ccccc1 97

Param readout = growth; param system = OVCAR-8 ovarian; param query = CCOC(=O)NN1CC(O)=C(c2nc(-c3ccc(Br)cc3)cs2)C1=N ; response: value 97

Lab note: need growth with OVCAR-8 ovarian for entry COc1ccc(C2=CN3CC=CCC3CC2=O)cc1 (stereo not drawn) , please look it up. 91

# query: growth | item C#CC#CC#CC#CC#CC#CC#CC#CC[C@H]1OC[C@H](COC(=O)O[C@@H](C(=O)O[C@H]2C[C@@]3(O)[C@@H](OC(=O)c4ccccc4)[C@@H]4[C@]5(OC(C)=O)CO[C@@H]5C[C@H](O)[C@@]4(C)C(=O)[C@H](OC(C)=O)C(=C2C)C3(C)C)[C@@H](NC(=O)c2ccccc2)c2ccccc2)O1 | system: OVCAR-8 ovarian 52.7

Checklist item: growth tested on OVCAR-8 ovarian, entry COc1ccc(C2CC(c3ccc(Nc4nc(Nc5ccc(F)cc5)nc(Nc5ccc(F)cc5)n4)cc3)=NN2C(C)=O)cc1 (stereo not drawn) , value? 90.3

Identify the measured growth of O=C1/C(=C/c2ccc(C(F)(F)F)cc2)COc2ccc(O)c(O)c21 for OVCAR-8 ovarian. 9.3
